Assay: Antiproliferative activity against human WSU HN-30 cells assessed as inhibition rate at 0.1 uM incubated for 72 hrs by MTT assay relative to control
Type: functional
Conditions: WSU-HN30
Classification field: enter condition met for inhibition at 0.1 µM values not below 40%, condition not met for values below it.

Example entries begin here.
[
  {
    "Molecule": "COc1cc2c(OCCOCCNC(=O)[C@@H]3CC(F)(F)CN3)c3c(c(-c4ccc5c(c4)OCO5)c2cc1OC)C(=O)OC3",
    "Qualitative label": "condition not met"
  },
  {
    "Molecule": "COc1cc2c(OCCOCCNC(=O)C3=C[C@H](O)[C@H](O)[C@@H](O)C3)c3c(c(-c4ccc5c(c4)OCO5)c2cc1OC)C(=O)OC3",
    "Qualitative label": "condition not met"
  },
  {
    "Molecule": "COc1cc2c(OCCOCCNC(=O)CON)c3c(c(-c4ccc5c(c4)OCO5)c2cc1OC)C(=O)OC3",
    "Qualitative label": "condition not met"
  },
  {
    "Molecule": "COc1cc2c(OCCOCCNC(=O)C3CNCC(F)(F)C3)c3c(c(-c4ccc5c(c4)OCO5)c2cc1OC)C(=O)OC3 (centres undefined)",
    "Qualitative label": "condition not met"
  },
  {
    "Molecule": "COc1cc2c(OCCOCCOCCN)c3c(c(-c4ccc5c(c4)OCO5)c2cc1OC)C(=O)OC3",
    "Qualitative label": "condition not met"
  }
]

With those in mind, consider the next molecule.
Is the recorded value of inhibition at 0.1 µM equal to or greater than 40% for this molecule? COc1cc2c(O[C@@H]3O[C@@H]4CO[C@@H](c5ccc(SC)cc5)O[C@H]4[C@H](O)[C@H]3O)c3c(c(-c4ccc5c(c4)OCO5)c2cc1OC)C(=O)OC3
condition met
